- Test target: T1, GHRH receptor (membrane receptors of human anterior pituitary cells) (human) (UniProt Q02643)
- T1 sequence (looked up): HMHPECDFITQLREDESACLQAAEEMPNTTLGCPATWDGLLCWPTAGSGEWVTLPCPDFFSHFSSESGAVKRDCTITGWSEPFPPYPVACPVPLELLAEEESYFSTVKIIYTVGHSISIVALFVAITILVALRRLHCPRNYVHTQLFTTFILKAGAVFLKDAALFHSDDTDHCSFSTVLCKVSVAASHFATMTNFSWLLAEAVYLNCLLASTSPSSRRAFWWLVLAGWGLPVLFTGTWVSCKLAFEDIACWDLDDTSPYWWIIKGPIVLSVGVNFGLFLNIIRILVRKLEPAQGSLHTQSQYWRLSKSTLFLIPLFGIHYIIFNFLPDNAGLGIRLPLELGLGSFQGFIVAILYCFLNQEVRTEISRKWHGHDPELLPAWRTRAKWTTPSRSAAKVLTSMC
- Procedure text: competition with 125I-JV-1-42, human pituitary membranes
Non-standard residues stand in square brackets, D forms with d. No end group written: not given here. *: point of attachment. NMeY = CN[C@@H](Cc1ccc(O)cc1)C(=O)O; Agmatine = N=C(N)NCCCCN*; Nle = CCCC[C@H](N)C(=O)O; Orn = NCCC[C@H](N)C(=O)O; Abu = CC[C@H](N)C(=O)O
Metric: Relative affinity (Binding potency) vs JI-38 (JI-38 = 1)

Some binders with known Relative affinity (Binding potency) vs JI-38 results, for comparison:
| Binder | Result |
| --- | --- |
| YADAIFTNSYRKVLGQLSARKLLQDIMSRQ (peptide, from a related filing, N-Me-Tyr^1; Abu^2; Orn^12; Abu^15; Orn^21; Nle^27; Gab^30 (in place of Gln^30); C-terminal -NH2) [P-25503 [N-Me-Tyr^1, Abu^2, Orn^12, Abu^15, Orn^21, Nle^27, Gab^30]hGHRH(1-30)NH2] | 3.67 |
| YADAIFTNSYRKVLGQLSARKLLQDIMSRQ (peptide, from a related filing, N-Me-Tyr^1; Orn^12; Abu^15; Orn^21; Nle^27; Gab^30 (in place of Gln^30); C-terminal -NH-CH3) [P-27415 [N-Me-Tyr^1, Orn^12, Abu^15, Orn^21, Nle^27, Gab^30]hGHRH(1-30)NH-CH3] | 1.44 |
| [NMeY]ADAIFTQSYR[Orn]VL[Abu]QLSAR[Orn]LLQDI[Nle]D[Agmatine] (peptide, from a related filing, not fully specified (C-terminus)) [P-20356 [N-Me-Tyr^1, Gln^8, Orn^12, Abu^15, Orn^21, Nle^27, Asp^28, Agm^29]hGHRH(1-29)NH2] | 16.1 |

a. [NMeY]ADAIFTQSYR[Orn]VL[Abu]QLSAR[Orn]LLQDI[Nle]SR-NHMe (peptide, from a related filing) [P-27405 [N-Me-Tyr^1, Gln^8, Orn^12, Abu^15, Orn^21, Nle^27]hGHRH(1-29)NH-CH3]
b. [NMeY]ADAIFTQSYR[Orn]VL[Abu]QLSAR[Orn]LLQDI[Nle]DR-NHMe (peptide, from a related filing) [P-27406 [N-Me-Tyr^1, Gln^8, Orn^12, Abu^15, Orn^21, Nle^27, Asp^28]hGHRH(1-29)NH-CH3]
Exam item: Higher Relative affinity (Binding potency) vs JI-38: a or b ? Use the label to indicate which entry you chose.
Marked response: b
(b: 14.5 JI-38 = 1, a: 4.03 JI-38 = 1)

Reference source: patent US20140179604A1
